Molecular target: T1, Western Reserve B5 on cells infected with VVddeGFP Western Reserve virus (Vaccinia virus, Western Reserve strain, UniProt Q01227 18-317)
T1 construct: also called VV B5; WR
Experiment: flow cytometry, HT29 cells infected with WR VV
Item-by-item account of EC50

INSERT INTO results (binder, recorded_value) VALUES
  ('A048-H3L2 (antibody, V domains shown) VH: EVQLLESGGGLVQPGGSLRLSCAASGFSFSSSYYMCWVRQAPGKGLEWIACIYTSSGSAYYADSVKGRFTISRDNSKNTLYLQMNSLRAEDTAVYYCVRNAVGSSYYLYLWGQGTLVTVSS VL: AQVLTQSPSTLSASVGDRVTITCQASQSVAGNNYLSWYQQKPGKAPKLLIYSVSTLASGVPSRFSGSGSGTEFTLTISSLQPDDFATYYCQGYYNDGIWAFGQGTKVEIK', '1.32 nM');

// query Look up and state reported EC50 for A048-H4L1 (antibody, V domains shown) VH: EVQLLESGGGLVQPGGSLRLSCAASGFSFSSSYYMCWVRQAPGKGLEWIACIYTSSGSAYYADSVKGRFTISRTSSTTVTLQMNSLRAEDTAVYYCVRNAVGSSYYLYLWGQGTLVTVSS VL: DIQMTQSPSTLSASVGDRVTITCQASQSVAGNNYLSWYQQKPGKAPKLLIYSVSTLASGVPSRFSGSGSGTEFTLTISSLQPDDFATYYCQGYYNDGIWAFGQGTKVEIK
// result 2.77 nM

// query Look up and state reported EC50 for A048-H1L4 (antibody, V domains shown) VH: EVQLLESGGGLVQPGGSLRLSCAASGFSFSSSYYMCWVRQAPGKGLEWIACIYTSSGSAYYANWAKGRFTISRDNSKNTLYLQMNSLRAEDTAVYYCVRNAVGSSYYLYLWGQGTLVTVSS VL: AQVLTQSPSSLSASVGDRVTITCQASQSVAGNNYLSWYQQKPGKVPKLLIYSVSTLASGVPSRFSGSGSGTDFTLTISSLQPEDVATYYCQGYYNDGIWAFGQGTKVEIK
// result 0.68 nM
